Would you mind telling me the reported cytotoxicity at 10 µM of each entry?
procedure.text: Toxicity liver stage against HepG2, at 10uM
Assay type: cell-based
Design: test concentration 10 uM, cell line HepG2-A16-CD81EGFP
test.context: human, HepG2-A16-CD81EGFP cells; read-out: INHIBITION
// units = %; emit number, no label

Exam item: Requested field: cytotoxicity at 10 µM. Item: CCOC(C)c1noc(CN2CCN(c3nnc(C)s3)CC2)n1 (stereo unspecified)
Marked response: -11.1

Exam item: Requested field: cytotoxicity at 10 µM. Item: Cc1nnc2n1CCN(C(=O)CN1C(=O)CCCc3ccccc31)C2
Marked response: -11.4

Exam item: Requested field: cytotoxicity at 10 µM. Item: O=C(CN1CCCC1)N1CCCC(CNS(=O)(=O)Cc2ccccc2)C1 (stereo unspecified)
Marked response: -17.9

Exam item: Requested field: cytotoxicity at 10 µM. Item: O=C(O)CCCN1C[C@@H](c2ccccc2F)[C@@]2(CCCCC(=O)N2)C1
Marked response: 4.6

Exam item: Requested field: cytotoxicity at 10 µM. Item: COc1cc(CNC(C)c2ccc(F)c(F)c2)cc2c1OCCO2 (stereo unspecified)
Marked response: -1.58

Exam item: Requested field: cytotoxicity at 10 µM. Item: COCCC1(C(=O)NCCc2nncn2C2CC2)CCC1
Marked response: -9.22
